- Test system: NCI-H226
- measurement description: NCI tumour cell line growth inhibition, 48 h
The source made the active and inactive calls. Cut-off read from the data, not from the text of the source: active = GI50 up to about 1.1 µM and inactive = higher.
Tick one outcome: true for active, false for inactive

Worked cases, answers included:
CNc1nc(N(C)C)nc(N(C)C)n1
false
Cc1ccc(C(=O)O)c(/C=C2\Cc3ccc(C)cc3C2=O)c1
false
CC(C)Oc1cccc(N2C(Nc3ccccc3)=Nc3ccncc3S2(=O)=O)c1
false
O=C(N/N=C(COc1ccc([N+](=O)[O-])cc1)\N=C\c1ccncc1)c1ccncc1
false
CSc1nc(-c2ccc(Cl)cc2)c(C#N)c(=O)n1C1OC(COC(C)=O)C(OC(C)=O)C(OC(C)=O)C1OC(C)=O (stereo unspecified)
false

Dear colleague, could you share the recorded outcome for COC(=O)C1(Cc2ccccc2)Cc2c(C)ccc(C)c2C1=O (stereo unspecified) when you have a moment?
false

Dear colleague, could you share the recorded outcome for COc1ccc(N2C(=O)C3c4[nH]c5ccc(OC)cc5c4C4CCC(C(C)C)CC4C3C2=O)cc1 (stereo unspecified) when you have a moment?
false

Dear colleague, could you share the recorded outcome for `CC(=O)[C@@]1(O)CC[C@H]2[C@@H]3C[C@H](C)C4=CC(=O)CC[C@]4(C)[C@H]3[C@@H](O)C[C@@]21C` when you have a moment?
false

Dear colleague, could you share the recorded outcome for `Cc1ccc(/C=C/C(=O)c2sc(-c3cccnc3)nc2C)cc1` when you have a moment?
false

* * *

- Tested on: UACC-62
- measurement description: NCI tumour cell line growth inhibition, 48 h
Activity calls are given as the source filed them. Cut-off read from the data, not from the text of the source: active = GI50 up to about 1.1 µM and inactive = higher.
Tick one outcome: active, inactive

Dear colleague, could you share the recorded outcome for `CC(C)(CN1CCOCC1)C(=O)/C=C/c1ccc(/C=C/C(=O)C(C)(C)CN2CCOCC2)cc1` when you have a moment?
inactive

Dear colleague, could you share the recorded outcome for `CC(=O)Nc1nc(Cl)cc(NCC2(CO)CCC2)n1` when you have a moment?
inactive

Dear colleague, could you share the recorded outcome for CN(C)CCNC(=O)c1cccc2c(NC(CCC(N)=O)C(=O)O)c3ccccc3nc12 (centres undefined) when you have a moment?
inactive

Dear colleague, could you share the recorded outcome for CCOC(=O)C(Cc1ccc(OC(=O)c2ccc(OC)cc2OC)cc1)NC(=O)C(F)(F)F (centres undefined) when you have a moment?
inactive

Dear colleague, could you share the recorded outcome for CCOC(=O)/C=C1\Nc2ccccc2C(c2ccccc2)=NC1OC(C)=O (centres undefined) when you have a moment?
inactive

Dear colleague, could you share the recorded outcome for C#CC1(O)CCC2[C@@H]3CCc4cc(Oc5nc(F)nc(-c6c7ccccc7cn6C)n5)ccc4C3CC[C@@]21C (some centres undefined) when you have a moment?
inactive

Dear colleague, could you share the recorded outcome for `C#Cc1cc(-c2nc3ccccc3s2)ccc1N` when you have a moment?
inactive

* * *

- System: LOX IMVI
- measurement description: NCI tumour cell line growth inhibition, 48 h
Calls of active or inactive are those of the source. No stated cut-off is given here; in the data, active = GI50 up to about 1.1 µM and inactive = higher.
recorded endpoint: GI50

Sample records with GI50:
C/C(=C\CNc1ncnc2c1ncn2CCC(=O)OC(C)(C)C)CO
> 100 µM (inactive)
CC(=O)OC1CCC2(C)C(=CCC3C4CCC5(OC6CC(C)CN(C(C)=O)C6C5C)C(C)=C4C(=O)C32)C1 (centres undefined)
12 µM (inactive)
CC1c2ccccc2Cn2cc3c(c21)C(=O)c1cccc(OP(=O)(O)OCc2ccccc2)c1C3=O (centres undefined)
> 100 µM (inactive)
CCCN1CN(C(C(=O)N[C@@H]2C(=O)N3C(C(=O)O)=C(C)CSC23)c2ccc(O)cc2)CSC1=S (some centres undefined)
76.6 µM (inactive)
O=C1C(O)=C(C(CCc2ccccc2)C2=C(O)C(=O)c3ccccc3C2=O)C(=O)c2ccccc21
5.26 µM (inactive)

Retrieve GI50 measured for `COCn1c(C)c(C)c2c(=O)oc(N(C)C)nc21` and print it.
> 100 µM (inactive)

Retrieve GI50 measured for `CCc1n[nH]c(=O)n1/N=C/c1ccccc1O` and print it.
> 100 µM (inactive)

* * *

- System: DMS-273
- measurement description: NCI tumour cell line growth inhibition, 48 h
Active and inactive are the calls of the source. Rule as the data show it: active = GI50 up to about 1.1 µM and inactive = higher.
Listed here: items and their measured GI50.

Sample records with GI50:
COc1ccc(/C=N/NC(=O)NCCNCCO)cc1
> 100 µM (inactive)
CS/C(=N/C(=O)c1ccccc1Cl)SCCS/C(=N\C(=O)c1ccccc1Cl)SC
> 100 µM (inactive)
CCCC/C=C1\CCC(CN2CCCC2)C1=O (stereo unspecified)
16.7 µM (inactive)
CNS(=O)(=O)NNS(=O)(=O)c1cccc([N+](=O)[O-])c1
> 100 µM (inactive)
Clc1ccc(C(c2ccccc2Cl)C(Cl)Cl)cc1 (stereo unspecified) [MITOTANE]
18.5 µM (inactive)

Shifting focus to the molecule that follows.
For DMS-273, give the measured GI50 of the entry COc1ccc2nc(NC(=O)C(=O)C(C#N)c3ccc(CC#N)cc3)sc2c1 (stereo unspecified)
> 100 µM (inactive)

* * *

- Tested on: MDA-MB-435
- measurement description: NCI tumour cell line growth inhibition, 48 h
Structures can show the parent of a compound that is named as a salt. Calls of active or inactive are those of the source. Rule as the data show it: active = GI50 up to about 1.1 µM and inactive = higher.
Tick one outcome: active, inactive

Worked cases, answers included:
CCOC(=O)NC(=O)c1cn(CCCOC(=O)CCCCCCCCC(=O)OCCCn2cc(C(=O)NC(=O)OCC)c(=O)n(C)c2=O)c(=O)n(C)c1=O
inactive
CC1(C)N=C(N)N=C(N)N1c1cccc(Cl)c1
active
CCc1nc(N)nc(N)c1-c1ccc2c(c1)nnn2CCc1ccccc1
inactive
N#Cc1[nH]c(=O)n(-c2ccccc2)c1N
inactive
C1CSC(Sc2nc(SC3=NCCS3)nc(SC3=NCCS3)n2)=N1
inactive

Dear colleague, could you share the recorded outcome for O=C1CC2(CCC(O)(c3cccs3)C(C(=O)c3cccs3)C2)C(=O)c2ccccc2N1 (stereo not given) when you have a moment?
inactive

Dear colleague, could you share the recorded outcome for COc1ccc(-c2cc(-c3ccco3)c(C#N)c(=S)n2C2OC(COC(C)=O)C(OC(C)=O)C(OC(C)=O)C2OC(C)=O)cc1 (stereo not given) when you have a moment?
inactive

Dear colleague, could you share the recorded outcome for `O=C(NNCC(F)(F)F)c1ccncc1` when you have a moment?
inactive

Dear colleague, could you share the recorded outcome for CN(C)CCCN1c2ccccc2Sc2ccc(C(F)(F)F)cc21 [TRIFLUPROMAZINE HYDROCHLORIDE] when you have a moment?
inactive

* * *

- Tested on: M14
- measurement description: NCI tumour cell line growth inhibition, 48 h
Calls of active or inactive are those of the source. Rule as the data show it: active = GI50 up to about 1.1 µM and inactive = higher.
Listed here: items and their measured GI50.

CC1(C)N=C(N)N=C(N)N1c1cccc(Cl)c1
0.877 µM (active)
CC(C)c1ccc(C(O)(C(=O)O)c2ccc(C(C)C)cc2)cc1
63.5 µM (inactive)
O=C(Cn1c(C(=O)/C=C/c2ccc(Cl)cc2)nc2ccccc21)c1ccc(Cl)cc1
18.1 µM (inactive)
COc1ccc(/C=N/NC(=O)NCCNCCO)cc1
> 100 µM (inactive)
COc1ccc2c(c1)C(=O)/C(=C/c1ccccc1)C2
27 µM (inactive)

Shifting focus to the molecule that follows.
For M14, give the measured GI50 of the entry COc1ccc2c(c1)CCCN1CCc3cc(OC)c(OC)cc3C21 (stereo unspecified)
> 100 µM (inactive)

* * *

- System: KM12
- measurement description: NCI tumour cell line growth inhibition, 48 h
The source made the active and inactive calls. Rule as the data show it: active = GI50 up to about 1.1 µM and inactive = higher. Peptide text beside a SMILES is read from it. * marks the point of attachment. Cbz = O=C(OCc1ccccc1)*; NHNH2 = NN*
Tick one outcome: class 1 = active, class 0 = inactive

C=C(C)C(=O)OC1CCC2(C)C(CCC3C2CCC2(C)C(c4ccc(=O)oc4)CC4OC432)C1 (stereo not drawn)
class 0
Cn1c(=O)c2c(nc3[nH]c(=O)c(Br)cn32)n(C)c1=O
class 0
COc1ccc(C(=O)/C=C2\c3ccccc3C(=O)N2C)cc1
class 0
COC1C(O)CC(OC2CC(OC3CC(O[C@@H]4C(=O)c5c(cc6cc(OC7CC(OC8CC(O)C(O)C(C)O8)C(O)C(C)O7)c(C)c(O)c6c5O)C[C@H]4[C@H](OC)C(=O)[C@@H](O)[C@@H](C)O)OC(C)C3O)OC(C)C2O)OC1C (stereo partly drawn)
class 1
Cc1ccc(/N=N/c2c(O)ccc3ccccc23)cc1
class 0
COC(=O)CC(NC(=O)OCc1ccccc1)C(=O)NC(CC(=O)OC)C(=O)NC(CC(=O)OC)C(=O)NC(CC(=O)OC)C(=O)NC(CC(=O)OC)C(=O)NC(CC(=O)OC)C(=O)NN (stereo not drawn) (Cbz-D(OMe)D(OMe)D(OMe)D(OMe)D(OMe)D(OMe)-NHNH2; configuration not given here)
class 0
O=C1C(O)=C(C(CCc2ccccc2)C2=C(O)C(=O)c3ccccc3C2=O)C(=O)c2ccccc21
class 0
COC1OC2=CCC3C(=O)NC(=O)C3C2[C@H](OCc2ccccc2)C1OCc1ccccc1 (stereo partly drawn)
class 0

Dear colleague, could you share the recorded outcome for `CCOc1ncn(-c2ccc(NC(=S)Nc3cnccn3)cc2)n1` when you have a moment?
class 0

Dear colleague, could you share the recorded outcome for `Cc1nc2ccccc2c(=O)n1NC(=O)c1ccccn1` when you have a moment?
class 0

Dear colleague, could you share the recorded outcome for `Cc1c(C(=O)/C=C/c2ccccc2[N+](=O)[O-])[n+]([O-])c2ccccc2[n+]1[O-]` when you have a moment?
class 0

Dear colleague, could you share the recorded outcome for Cc1ccc(S(=O)(=O)CC2(Br)CCc3ccccc3C2=O)cc1 (stereo not drawn) when you have a moment?
class 0

Dear colleague, could you share the recorded outcome for `C/C(=N\Oc1cc(Cl)ncn1)c1ccccn1` when you have a moment?
class 0

Dear colleague, could you share the recorded outcome for `COC(=O)[C@H](Cc1ccccc1)NC(=O)c1ccc(CNC(=O)/C=C/c2cccc(Oc3ccccc3)c2)cc1` when you have a moment?
class 0
